# test_target: FAAH (Mus musculus)
# test_details: In vitro/ex vivo FAAH activity determination in brain after intra-tracheal instillation
# Parameters: Liver and brain fragments were removed and processed for enzymatic activity determination; from tissue; species or system male NMRI mice
# details: remaining enzymatic activity vs controls, 1 mg/kg intra-tracheal instillation, sacrificed after 8 h
Structures can show the parent of a compound that is named as a salt.
parameter_measured: FAAH Activity - Brain itc (% C)
Give the value, in units of % C, as a plain number.

Tested on FAAH (Mus musculus): CN(C(=O)n1cnc(-c2cccc(OS(N)(=O)=O)c2)c1)C1CCN(c2ccc(Br)c(O)c2)CC1 [Example 29, hydrochloride] . Observed FAAH Activity - Brain itc (% C): 97.6

----------
Reported FAAH Activity - Liver itc (% C) values follow for various molecules
# test_target: FAAH (Mus musculus, UniProt O08914)
# test_details: In vitro/ex vivo FAAH activity determination in liver after intra-tracheal instillation
# Parameters: Liver and brain fragments were removed and processed for enzymatic activity determination; from tissue; host or cells: mouse liver fragment homogenate; species or system male NMRI mice
# details: remaining enzymatic activity vs controls, 1 mg/kg intra-tracheal instillation, sacrificed after 8 h
Structures can show the parent of a compound that is named as a salt.
Give the value, in units of % C, as a plain number.

COc1cccc(CN2CCC(N(C)C(=O)n3cnc(-c4cccc(NS(N)(=O)=O)c4)c3)CC2)c1.O=C(O)/C=C\C(=O)O.O=C(O)/C=C\C(=O)O = 15.8
COc1cc(CN2CCC(N(C)C(=O)n3cnc(-c4cccc(OS(N)(=O)=O)c4)c3)CC2)ccc1F [Example 10, hydrochloride] = 3.2

Here is the next item to consider.
The reported FAAH Activity - Liver itc (% C) of the molecule COc1cc(CN2CCC(N(C)C(=O)n3cnc(-c4ccc(OS(N)(=O)=O)cc4)c3)CC2)ccc1F [Example 12, oxalate] was 3.8

----------
# test_target: FAAH (Mus musculus)
# test_details: In vitro/ex vivo FAAH activity determination in brain after intra-tracheal instillation
# Design: Liver and brain fragments were removed and processed for enzymatic activity determination; from tissue; species or system male NMRI mice
# details: remaining enzymatic activity vs controls, 1 mg/kg intra-tracheal instillation, sacrificed after 8 h
Counter-ions that a name gives are not always drawn.
Reported FAAH Activity - Brain itc (% C) values follow for various molecules
Answer with the value and then the unit.

Worked examples, 6 molecules total:
CN(C(=O)n1cnc(-c2cccc(NS(C)(=O)=O)c2)c1)C1CCN(c2ccc(O)cc2)CC1 [Example 24, hydrochloride] = 92.6 % C
COc1cccc(CN2CCC(N(C)C(=O)n3cnc(-c4cccc(NC(N)=O)c4)c3)CC2)c1.Cl = 91.9 % C
COc1cc(CN2CCC(N(C)C(=O)n3cnc(-c4ccc(OS(N)(=O)=O)cc4)c3)CC2)ccc1F [Example 12, oxalate] = 108.7 % C
COc1cc(CN2CCC(N(C)C(=O)n3cnc(-c4cccc(OS(N)(=O)=O)c4)c3)CC2)ccc1F [Example 10, hydrochloride] = 113.4 % C
COc1cccc(CN2CCC(N(C)C(=O)n3cnc(-c4cccc(NS(N)(=O)=O)c4)c3)CC2)c1.CS(=O)(=O)O = 82.1 % C
COc1cc(CN2CCC(N(C)C(=O)n3cnc(-c4cccc(OS(N)(=O)=O)c4)c3)CC2)cc(OC)c1.Cl = 107.2 % C

Here is the next item to consider.
The reported FAAH Activity - Brain itc (% C) of the molecule COc1cccc(CN2CCC(N(C)C(=O)n3cnc(-c4ccc(OS(N)(=O)=O)cc4)c3)CC2)c1 [Example 14, hydrochloride] was 89.3 % C

----------
# Tested on: CYPs
# test_details: CYPs metabolic stability assay in HLM (human liver microsomes)
# Assay type: in vitro ADME
# details: HLM 1 mg/ml protein, absence of NADPH, compound 5 μM, 60 min, 37° C.
Structures can show the parent of a compound that is named as a salt.
Reported Control (% remain) values follow for various molecules
Give the value, in units of % remain, as a plain number.

Worked examples, 6 molecules total:
CN(C(=O)n1cnc(-c2cccc(NC(N)=O)c2)c1)C1CCN(c2ccc(O)cc2)CC1 [Example 25, hydrochloride] = 61.5
COc1cccc(CN2CCC(N(C)C(=O)n3cnc(-c4ccc(OS(N)(=O)=O)cc4)c3)CC2)c1 [Example 14, hydrochloride] = 100.9
CN(C(=O)n1cnc(-c2cccc(OS(N)(=O)=O)c2)c1)C1CCN(Cc2ccccc2)CC1 [Example 7, hydrochloride] = 92.6
CN(C(=O)n1cnc(-c2cccc(OS(N)(=O)=O)c2)c1)C1CCN(Cc2ccc3c(c2)OCO3)CC1 [Example 30, hydrochloride] = 97.8
COc1cc(CN2CCC(N(C)C(=O)n3cnc(-c4cccc(OS(N)(=O)=O)c4)c3)CC2)cc(OC)c1.Cl [Example 9] = 102.5
CN(C(=O)n1cnc(-c2ccc(OS(N)(=O)=O)cc2)c1)C1CCN(c2ccc(O)cc2)CC1 [Example 28, hydrochloride] = 84.8

Here is the next item to consider.
The reported Control (% remain) of the molecule COc1cccc(CN2CCC(N(C)C(=O)n3cnc(-c4cccc(C(N)=O)c4)c3)CC2)c1 [Example 13, hydrochloride] was 103.5

----------
Reported FAAH Activity - Liver itc (% C) values follow for various compounds
# test_target: FAAH (Mus musculus, UniProt O08914)
# Sequence (O08914 1-579): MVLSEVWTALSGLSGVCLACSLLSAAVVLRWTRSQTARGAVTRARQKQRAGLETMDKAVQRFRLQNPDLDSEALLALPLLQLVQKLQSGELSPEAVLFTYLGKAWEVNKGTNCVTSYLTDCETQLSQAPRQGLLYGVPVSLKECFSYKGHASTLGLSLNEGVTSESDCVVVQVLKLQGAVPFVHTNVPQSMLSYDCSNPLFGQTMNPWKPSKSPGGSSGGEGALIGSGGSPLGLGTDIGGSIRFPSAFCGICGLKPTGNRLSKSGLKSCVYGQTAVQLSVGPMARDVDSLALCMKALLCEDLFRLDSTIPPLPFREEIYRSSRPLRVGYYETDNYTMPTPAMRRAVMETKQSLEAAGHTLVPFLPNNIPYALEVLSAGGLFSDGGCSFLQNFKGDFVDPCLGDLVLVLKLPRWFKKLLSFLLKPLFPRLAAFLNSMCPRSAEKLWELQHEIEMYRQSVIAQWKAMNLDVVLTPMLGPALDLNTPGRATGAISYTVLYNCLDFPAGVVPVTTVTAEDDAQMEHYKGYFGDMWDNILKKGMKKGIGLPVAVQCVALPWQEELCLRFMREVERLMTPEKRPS
# test_details: In vitro/ex vivo FAAH activity determination in liver after intra-tracheal instillation
# Parameters: Liver and brain fragments were removed and processed for enzymatic activity determination; from tissue; host or cells: mouse liver fragment homogenate; species or system male NMRI mice
# details: remaining enzymatic activity vs controls, 1 mg/kg intra-tracheal instillation, sacrificed after 8 h
Counter-ions that a name gives are not always drawn.
Give the value, in units of % C, as a plain number.

Worked examples, 5 compounds total:
COc1ccc(CN2CCC(N(C)C(=O)n3cnc(-c4cccc(NC(N)=O)c4)c3)CC2)cc1OC [Example 26, hydrochloride] = 12.4
COc1cccc(CN2CCC(N(C)C(=O)n3cnc(-c4cccc(NS(N)(=O)=O)c4)c3)CC2)c1.CS(=O)(=O)O [Example 23] = 11.5
CN(C(=O)n1cnc(-c2cccc(NC(N)=O)c2)c1)C1CCN(Cc2ccccc2)CC1.O=C(O)/C=C\C(=O)O [Example 21] = 8.2
CN(C(=O)n1cnc(-c2cccc(C(N)=O)c2)c1)C1CCN(c2ccc(O)cc2)CC1 [Example 35, hydrochloride] = 4.3
COc1ccccc1N1CCC(N(C)C(=O)n2cnc(-c3cccc(C(N)=O)c3)c2)CC1 [Example 34, hydrochloride] = 3.3

Here is the next item to consider.
The reported FAAH Activity - Liver itc (% C) of the compound COc1cccc(CN2CCC(N(C)C(=O)n3cnc(-c4cccc(NS(N)(=O)=O)c4)c3)CC2)c1 [Example 3, hydrochloride] was 5.3

----------
# Test system: CYPs
# test_details: CYPs metabolic stability assay in HLM (human liver microsomes)
# Assay type: in vitro ADME
# details: HLM 1 mg/ml protein, absence of NADPH, compound 5 μM, 60 min, 37° C.
Where a name gives a salt, the structure may show the parent alone.
parameter_measured: Control (% remain)
Give the value, in units of % remain, as a plain number.

Worked examples, 3 compounds total:
CN(C(=O)n1cnc(-c2cccc(NS(C)(=O)=O)c2)c1)C1CCN(c2ccc(O)cc2)CC1 [Example 24, hydrochloride] = 91.5
CN(C(=O)n1cnc(-c2cccc(OS(N)(=O)=O)c2)c1)C1CCN(c2ccc(O)cc2)CC1 [Example 15, hydrochloride] = 94.4
CN(C(=O)n1cnc(-c2cccc(NC(N)=O)c2)c1)C1CCN(Cc2ccccc2)CC1 [Example 16, hydrochloride] = 101.4

Here is the next item to consider.
The reported Control (% remain) of the compound CN(C(=O)n1cnc(-c2cccc(NC(N)=O)c2)c1)C1CCN(Cc2ccc3c(c2)OCO3)CC1.Cl [Example 18] was 97.6
